// GI50 lookup, one value per entry
- Tested on: panel of 55 breast cancer cell lines
- protocol_notes: Cell growth inhibition assay (Cell Titer Glo, 72 h, 9 doses; GI50, TGI, LC50)
- Assay type: cell-based, human
- test_parameters: Homo sapiens, HCC1806, cell line HCC1806; read-out: GI50 (converted)
measured_metric: GI50 (µM)

- compound: "COc1cccc2c1C(=O)c1c(O)c3c(c(O)c1C2=O)C[C@@](O)(C(=O)CO)C[C@@H]3O[C@H]1C[C@H](N)[C@H](O)[C@H](C)O1"
  recorded_measurement: 0.162
- compound: "COC1=C2C[C@@H](C)C[C@H](OC)[C@H](O)[C@@H](C)/C=C(\\C)[C@H](OC(N)=O)[C@@H](OC)/C=C\\C=C(/C)C(=O)NC(=CC1=O)C2=O"
  recorded_measurement: 0.0759
- compound: "CC/C(=C(\\c1ccccc1)c1ccc(OCCN(C)C)cc1)c1ccccc1"
  recorded_measurement: 13.2
- compound: "COc1cc([C@@H]2c3cc4c(cc3[C@@H](O[C@@H]3O[C@@H]5CO[C@@H](C)O[C@H]5[C@H](O)[C@H]3O)[C@H]3COC(=O)[C@H]23)OCO4)cc(OC)c1O [Etoposide]"
  recorded_measurement: 3.09
- compound: "CCNCCCNC/C=C\\CNCCCNCC"
  recorded_measurement: 74.1
- compound: "CS(=O)(=O)CCNCc1ccc(-c2ccc3ncnc(Nc4ccc(OCc5cccc(F)c5)c(Cl)c4)c3c2)o1"
  recorded_measurement: 16.6
- compound: "C#Cc1cccc(Nc2ncnc3cc(OCCOC)c(OCCOC)cc23)c1"
  recorded_measurement: 4.27

###

// GI50 lookup, one value per entry
- Tested on: panel of 55 breast cancer cell lines
- protocol_notes: Cell growth inhibition assay (Cell Titer Glo, 72 h, 9 doses; GI50, TGI, LC50)
- Type: cell-based, human
- test_parameters: Homo sapiens, MDA-MB-361, cell line MDAMB361; read-out: GI50 (converted)

- molecule: "COc1cc2ncnc(Nc3ccc(F)c(Cl)c3)c2cc1OCCCN1CCOCC1 [Gefitinib]"
  target_entity: "panel of 55 breast cancer cell lines"
  units_text: "nM"
  GI50: 6460
- molecule: "C#Cc1cccc(Nc2ncnc3cc(OCCOC)c(OCCOC)cc23)c1 [Erlotinib]"
  target_entity: "panel of 55 breast cancer cell lines"
  units_text: "nM"
  GI50: 64600
- molecule: "Nc1nc2[nH]cc(CCc3ccc(C(=O)N[C@@H](CCC(=O)O)C(=O)O)cc3)c2c(=O)[nH]1 [Pemetrexed]"
  target_entity: "panel of 55 breast cancer cell lines"
  units_text: "nM"
  GI50: 490
- molecule: "Cn1cnc2c(F)c(Nc3ccc(Br)cc3Cl)c(C(=O)NOCCO)cc21 [AZD6244]"
  target_entity: "panel of 55 breast cancer cell lines"
  units_text: "nM"
  GI50: 50100
- molecule: "Cn1c(=O)n(-c2ccc(C(C)(C)C#N)cc2)c2c3cc(-c4cnc5ccccc5c4)ccc3ncc21 [BEZ235]"
  target_entity: "panel of 55 breast cancer cell lines"
  units_text: "nM"
  GI50: 813
- molecule: "CC[C@@]1(O)C(=O)OCc2c1cc1n(c2=O)Cc2cc3c(CN(C)C)c(O)ccc3nc2-1 [Topotecan]"
  target_entity: "panel of 55 breast cancer cell lines"
  units_text: "nM"
  GI50: 525
- molecule: "Cc1[nH]c2ccccc2c1CCNCc1ccc(/C=C/C(=O)NO)cc1 [LBH589]"
  target_entity: "panel of 55 breast cancer cell lines"
  units_text: "nM"
  GI50: 50.1
- molecule: "CCNCCCNC/C=C\\CNCCCNCC [CGC-11047]"
  target_entity: "panel of 55 breast cancer cell lines"
  units_text: "nM"
  GI50: 708000
- molecule: "C/C(=C\\c1csc(C)n1)[C@@H]1C[C@@H]2O[C@]2(C)CCC[C@H](C)[C@H](O)[C@@H](C)C(=O)C(C)(C)[C@@H](O)CC(=O)N1 [Ixabepilone]"
  target_entity: "panel of 55 breast cancer cell lines"
  units_text: "nM"
  GI50: 2.29
- molecule: "COc1cccc2c1C(=O)c1c(O)c3c(c(O)c1C2=O)C[C@@](O)(C(=O)CO)C[C@@H]3O[C@H]1C[C@H](N)[C@H](O)[C@H](C)O1 [Doxorubicin]"
  target_entity: "panel of 55 breast cancer cell lines"
  units_text: "nM"
  GI50: 234
- molecule: "CO[C@H]1C[C@@H]2CC[C@@H](C)[C@@](O)(O2)C(=O)C(=O)N2CCCC[C@H]2C(=O)O[C@H]([C@H](C)C[C@@H]2CC[C@@H](O)[C@H](OC)C2)CC(=O)[C@H](C)/C=C(\\C)[C@@H](O)[C@@H](OC)C(=O)[C@H](C)C[C@H](C)/C=C/C=C/C=C/1C [Rapamycin]"
  target_entity: "panel of 55 breast cancer cell lines"
  units_text: "nM"
  GI50: 741
- molecule: "COc1cc([C@@H]2c3cc4c(cc3[C@@H](O[C@@H]3O[C@@H]5CO[C@@H](C)O[C@H]5[C@H](O)[C@H]3O)[C@H]3COC(=O)[C@H]23)OCO4)cc(OC)c1O [Etoposide]"
  target_entity: "panel of 55 breast cancer cell lines"
  units_text: "nM"
  GI50: 14100
- molecule: "O=C1c2ccccc2-[n+]2ccc3c([nH]c4ccccc43)c21 [Fascaplysin]"
  target_entity: "panel of 55 breast cancer cell lines"
  units_text: "nM"
  GI50: 81.3
- molecule: "CS(=O)(=O)CCNCc1ccc(-c2ccc3ncnc(Nc4ccc(OCc5cccc(F)c5)c(Cl)c4)c3c2)o1 [Lapatinib]"
  target_entity: "panel of 55 breast cancer cell lines"
  units_text: "nM"
  GI50: 8910
- molecule: "Cc1cncc2cccc(S(=O)(=O)N3CCCN(C(=O)CN)C[C@@H]3C)c12 [Glycyl-H-1152]"
  target_entity: "panel of 55 breast cancer cell lines"
  units_text: "nM"
  GI50: 33100
- molecule: "CCN(CC)CCCCNc1ncc2cc(-c3cc(OC)cc(OC)c3)c(NC(=O)NC(C)(C)C)nc2n1 [PD173074]"
  target_entity: "panel of 55 breast cancer cell lines"
  units_text: "nM"
  GI50: 15100
- molecule: "COc1cccc2c1C(=O)c1c(O)c3c(c(O)c1C2=O)C[C@@](O)(C(=O)CO)C[C@@H]3O[C@H]1C[C@H](N)[C@@H](O)[C@H](C)O1 [Epirubicin]"
  target_entity: "panel of 55 breast cancer cell lines"
  units_text: "nM"
  GI50: 224
- molecule: "CCC1=C[C@@H]2CN(C1)Cc1c([nH]c3ccccc13)[C@@](C(=O)OC)(c1cc3c(cc1OC)N(C)[C@H]1[C@@](O)(C(=O)OC)[C@H](OC(C)=O)[C@]4(CC)C=CCN5CC[C@]31[C@@H]54)C2 [Vinorelbine]"
  target_entity: "panel of 55 breast cancer cell lines"
  units_text: "nM"
  GI50: 6.61
- molecule: "CC(C)C[C@H](NC(=O)[C@H](Cc1ccccc1)NC(=O)c1cnccn1)B(O)O [Bortezomib]"
  target_entity: "panel of 55 breast cancer cell lines"
  units_text: "nM"
  GI50: 6030
- molecule: "COC1=C2C[C@@H](C)C[C@H](OC)[C@H](O)[C@@H](C)/C=C(\\C)[C@H](OC(N)=O)[C@@H](OC)/C=C\\C=C(/C)C(=O)NC(=CC1=O)C2=O [Geldanamycin]"
  target_entity: "panel of 55 breast cancer cell lines"
  units_text: "nM"
  GI50: 25.7
- molecule: "CN(Cc1cnc2nc(N)nc(N)c2n1)c1ccc(C(=O)N[C@@H](CCC(=O)O)C(=O)O)cc1 [Methotrexate]"
  target_entity: "panel of 55 breast cancer cell lines"
  units_text: "nM"
  GI50: 158
- molecule: "CC(=O)O[C@H]1C(=O)[C@@]2(C)[C@H]([C@H](OC(=O)c3ccccc3)[C@]3(O)C[C@H](OC(=O)[C@H](O)[C@@H](NC(=O)c4ccccc4)c4ccccc4)C(C)=C1C3(C)C)[C@]1(OC(C)=O)CO[C@@H]1C[C@@H]2O [Paclitaxel]"
  target_entity: "panel of 55 breast cancer cell lines"
  units_text: "nM"
  GI50: 13.2
- molecule: "CC(=O)O[C@@]12CO[C@@H]1C[C@H](O)[C@@]1(C)C(=O)[C@H](O)C3=C(C)[C@@H](OC(=O)[C@H](O)[C@@H](NC(=O)OC(C)(C)C)c4ccccc4)C[C@@](O)([C@@H](OC(=O)c4ccccc4)[C@H]21)C3(C)C [Docetaxel]"
  target_entity: "panel of 55 breast cancer cell lines"
  units_text: "nM"
  GI50: 5.62

###

- Tested on: panel of 55 breast cancer cell lines
- protocol_notes: Cell growth inhibition assay (Cell Titer Glo, 72 h, 9 doses; GI50, TGI, LC50)
- Format: cell-based, human
- test_parameters: Homo sapiens, cell line MDAMB175V; read-out: GI50 (converted)
// GI50 lookup, one value per entry
measured_metric: GI50 (nM)

- molecule: "Cn1cnc2c(F)c(Nc3ccc(Br)cc3Cl)c(C(=O)NOCCO)cc21"
  units_text: "nM"
  recorded_measurement: 2570
- molecule: "CC(C)C[C@H](NC(=O)[C@H](Cc1ccccc1)NC(=O)c1cnccn1)B(O)O"
  units_text: "nM"
  recorded_measurement: 5.25
- molecule: "COc1cccc2c1C(=O)c1c(O)c3c(c(O)c1C2=O)C[C@@](O)(C(=O)CO)C[C@@H]3O[C@H]1C[C@H](N)[C@@H](O)[C@H](C)O1 [Epirubicin]"
  units_text: "nM"
  recorded_measurement: 100
- molecule: "COc1cc2ncnc(Nc3ccc(F)c(Cl)c3)c2cc1OCCCN1CCOCC1"
  units_text: "nM"
  recorded_measurement: 209
